Reference source: patent US10550073B2

Please go through the items and note down their AUC(0-t).
ASSAY NOTES: Pharmacokinetics experiment, oral administration to SD rats
Type: in vivo
PROTOCOL CONDITIONS: Sprague-Dawley (SD), rat, plasma
Hi! Could you send only the number? It should be in ng·h/mL, unit omitted.

# lookup: AUC(0-t) of `Cc1c(F)cc(C(=O)NC2CC2)cc1-c1ccc(C(=O)NCC(C)C)nn1` 22100

Next molecule up: `Cc1c(F)cc(C(=O)NC2CC2)cc1-c1ccc(C(=O)NCC2CC2)nn1` 12200

Next molecule up: `Cc1c(F)cc(C(=O)NC2CC2)cc1-c1ccc(C(=O)NCC(C)(C)C)nn1` 11300

Next molecule up: Cc1c(F)cc(C(=O)NC2CC2)cc1-c1ccc(C(=O)NCC(C)(C)C)cn1 [Comparative example, reference compound] 9630

* * *

Please go through the items and note down their pIC50.
Tested on: TNF-α
ASSAY NOTES: In vitro cell experiment: LPS-stimulated TNF-α release in THP-1 cells (ELISA)
Format: cell-based
PROTOCOL CONDITIONS: Homo sapiens; TNF-α in supernatant of THP-1 cells, compound 2 h then LPS 10 μg/ml 2 h
pIC50: −log10 of the molar value.

# lookup: pIC50 of `Cc1c(F)cc(C(=O)NC2CC2)cc1-c1ccc(C(=O)NC2CCCC2)nn1` > 8.30

Next compound up: `Cc1c(F)cc(C(=O)NC2CC2)cc1-c1ccc(C(=O)N2CCCCC2)s1` 8.00 to 8.30

Next compound up: `Cc1c(F)cc(C(=O)NC2CC2)cc1-c1ccc(C(=O)NCC(C)C)nc1` > 8.30

Next compound up: `Cc1c(F)cc(C(=O)NC2CC2)cc1-c1ccc(C(=O)NC2CCCC2)nc1` > 8.30

Next compound up: `CCCCCNC(=O)c1ccc(-c2cc(C(=O)NC3CC3)cc(F)c2C)nc1` 8.00 to 8.30

Next compound up: `Cc1c(F)cc(C(=O)NC2CC2)cc1-c1ccc(C(=O)N(C)C2CCCCC2)nn1` 8.00 to 8.30

Next compound up: `CCCCNc1nc2ccc(-c3cc(C(=O)NC4CC4)cc(F)c3C)cc2s1` 8.00 to 8.30

Next compound up: CCC(C)NC(=O)c1ccc(-c2cc(C(=O)NC3CC3)cc(F)c2C)nn1 (centres unmarked) > 8.30

Next compound up: `Cc1c(F)cc(C(=O)NC2CC2)cc1-c1ccc(C(=O)N(C)C2CCCCC2)cc1` > 8.30

Next compound up: `C=CCNC(=O)c1cc(F)c(C)c(-c2ccc(C(=O)NC3CCCC3)nn2)c1` 8.00 to 8.30

Next compound up: `Cc1c(F)cc(C(=O)NC2CC2)cc1-c1ccc2nc(NC3CCCC3)sc2c1` 8.00 to 8.30

Next compound up: `Cc1c(F)cc(C(=O)NC2CC2)cc1-c1ccc(C(=O)NCC(C)C)c(F)c1` > 8.30

Next compound up: `Cc1c(F)cc(C(=O)NC2CC2)cc1-c1ccc(C(=O)N2CCCCCC2)cn1` 8.00 to 8.30

Next compound up: `Cc1c(F)cc(C(=O)NC2CC2)cc1-c1ccc(C(=O)NCC(C)C)nn1` > 8.30

Next compound up: `Cc1c(F)cc(C(=O)NC2CC2)cc1-c1ccc(C(=O)NCC2CC2)nn1` > 8.30

Next compound up: `CCC(C)(C)NC(=O)c1ccc(-c2cc(C(=O)NC3CC3)cc(F)c2C)cc1N` > 8.30

Next compound up: `Cc1c(F)cc(C(=O)NC2CC2)cc1-c1ccc(C(=O)NCCC(C)C)nn1` 8.00 to 8.30

Next compound up: `Cc1c(F)cc(C(=O)NC2CC2)cc1-c1ccc(NC(=O)C2CCCCC2)c(F)c1` 8.00 to 8.30

Next compound up: `Cc1c(F)cc(C(=O)NC2CC2)cc1-c1ccc(C(=O)NC2CCCC2)cc1` > 8.30

Next compound up: `Cc1c(F)cc(C(=O)NC2CC2)cc1-c1ccc2nc(NCC(C)C)sc2c1` > 8.30

Next compound up: `Cc1c(F)cc(C(=O)NC2CC2)cc1-c1ccc(C(=O)N2CCC(C)CC2)cc1` 8.00 to 8.30

Next compound up: `Cc1cc(-c2cc(C(=O)NC3CC3)cc(F)c2C)ccc1C(=O)NCC(C)C` > 8.30

Next compound up: `Cc1c(F)cc(C(=O)NC2CC2)cc1-c1ccc(C(=O)N(C)C2CCCC2)c(F)c1` > 8.30

Next compound up: `Cc1c(F)cc(C(=O)NC2CC2)cc1-c1ccc(C(=O)NC2CCCCC2)cn1` > 8.30

Next compound up: `Cc1c(F)cc(C(=O)NC2CC2)cc1-c1ccc(C(=O)N(C)CC(C)C)c(F)c1` > 8.30

Next compound up: `Cc1c(F)cc(C(=O)NC2CC2)cc1-c1ccc(C(=O)N2CCC(C)CC2)s1` 8.00 to 8.30

Next compound up: `Cc1cc(-c2cc(C(=O)NC3CC3)cc(F)c2C)ccc1NC(=O)NC1CCCC1` > 8.30

Next compound up: `CCCN(CCC)C(=O)c1ccc(-c2cc(C(=O)NC3CC3)cc(F)c2C)cc1` 8.00 to 8.30

Next compound up: `Cc1c(F)cc(C(=O)NC2CC2)cc1-c1ccc(C(=O)N(C)CC(C)C)nc1` > 8.30

Next compound up: `Cc1c(F)cc(C(=O)NC2CC2)cc1-c1ccc(C(=O)NC2CCCCC2)cc1` 8.00 to 8.30

Next compound up: `C=CCNC(=O)c1cc(F)c(C)c(-c2ccc(C(=O)NCC(C)(C)C)cn2)c1` 8.00 to 8.30

Next compound up: `Cc1c(F)cc(C(=O)NC2CC2)cc1-c1ccc(C(=O)NCC(C)(C)C)c(N)c1` 8.00 to 8.30

Next compound up: `Cc1c(F)cc(C(=O)NC2CC2)cc1-c1ccc(C(=O)NCC(C)(C)C)nn1` > 8.30

Next compound up: `C=CCNC(=O)c1cc(F)c(C)c(-c2ccc(C(=O)NC3CCCCC3)nn2)c1` 8.00 to 8.30

Next compound up: `Cc1c(F)cc(C(=O)NC2CC2)cc1-c1ccc(C(=O)NC2CCCC2)c(F)c1` > 8.30
